The values you see were collected from IntAct's records for PubMed 29039417.

B1: BBSome complex member BBS4 (Homo sapiens), Q96RK4 (parent)
chain: MAEERVATRTQFPVSTESQKPRQKKAPEFPILEKQNWLIHLHYIRKDYEACKAVIKEQLQETQGLCEYAIYVQALIFRLEGNIQESLELFQTCAVLSPQSADNLKQVARSLFLLGKHKAAIEVYNEAAKLNQKDWEISHNLGVCYIYLKQFNKAQDQLHNALNLNRHDLTYIMLGKIHLLEGDLDKAIEVYKKAVEFSPENTELLTTLGLLYLQLGIYQKAFEHLGNALTYDPTNYKAILAAGSMMQTHGDFDVALTKYRVVACAVPESPPLWNNIGMCFFGKKKYVAAISCLKRANYLAPFDWKILYNLGLVHLTMQQYASAFHFLSAAINFQPKMGELYMLLAVALTNLEDIENAKRAYAEAVHLDKCNPLVNLNYAVLLYNQGEKKNALAQYQEMEKKVSLLKDNSSLEFDSEMVEMAQKLGAALQVGEALVWTKPVKDPKSKHQTTSTSKPASFQQPLGSNQALGQAMSSAAAYRTLPSGAGGTSQFTKPPSLPLEPEPAVESSPTETSEQIREK
partner: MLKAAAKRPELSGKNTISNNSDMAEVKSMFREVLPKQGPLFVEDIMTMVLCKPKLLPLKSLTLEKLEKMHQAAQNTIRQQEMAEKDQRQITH

# Variants of: B1
# assay.conditions: with bbip1_human BBIP1, A8MTZ0
assay.endpoint: effect of a mutation on the interaction

See these solved cases before continuing.
sequence_change=K446A observed_value="with no effect"
sequence_change=N375K observed_value="with no effect"
sequence_change=L499A observed_value="with no effect"
sequence_change=M278E observed_value="with no effect"
sequence_change=Y361E observed_value="with no effect"
sequence_change=L373A observed_value="with no effect"
sequence_change=Q396E observed_value="with no effect"
sequence_change=A391E observed_value="with no effect"

Now for another entry.
Prompt: Recorded effect of a mutation on the interaction of "S269K" , please.
Response: with no effect
